- ASSAY TARGET: Tlp2 (Campylobacter jejuni, UniProt Q0PBZ3)
- Sequence (Q0PBZ3 entry or part of it): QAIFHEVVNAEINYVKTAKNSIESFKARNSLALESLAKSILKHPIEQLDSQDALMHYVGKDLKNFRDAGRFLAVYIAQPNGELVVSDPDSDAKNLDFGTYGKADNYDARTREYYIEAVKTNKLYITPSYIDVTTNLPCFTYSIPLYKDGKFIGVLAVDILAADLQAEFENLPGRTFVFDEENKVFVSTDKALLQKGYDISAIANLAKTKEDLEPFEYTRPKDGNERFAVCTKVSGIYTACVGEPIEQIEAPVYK
- Format: binding
- CONDITION SET: yes/no binding
PROPERTY NAME: binding to Tlp2 on glycan/small molecule array

C[C@H](O)[C@@H](O)[C@@H](O)[C@H](O)C=O [Fucose]
interacted
NCCCC[C@H](N)C(=O)O [Lysine]
bound
OC[C@H]1OC(O)[C@H](O)[C@@H](O)[C@@H]1O (stereo partly drawn) [Glucose]
interacted
N[C@@H](CS)C(=O)O [Cysteine]
bound
CC(=O)N[C@H]1[C@H]([C@H](O)[C@H](O)CO)OC(O)(C(=O)O)C[C@@H]1O (stereo partly drawn) [Sialic acid]
interacted
NC(=O)C[C@H](N)C(=O)O [Asparagine]
bound
c1ncc2nc[nH]c2n1 [Purine]
bound
OC[C@H]1OC(O)[C@@H](O)[C@@H](O)[C@@H]1O (stereo partly drawn) [Mannose]
interacted
N[C@@H](CO)C(=O)O [Serine]
bound

---

- ASSAY TARGET: Tlp4 (Campylobacter jejuni)
- Sequence (Q0PBP3 entry or part of it): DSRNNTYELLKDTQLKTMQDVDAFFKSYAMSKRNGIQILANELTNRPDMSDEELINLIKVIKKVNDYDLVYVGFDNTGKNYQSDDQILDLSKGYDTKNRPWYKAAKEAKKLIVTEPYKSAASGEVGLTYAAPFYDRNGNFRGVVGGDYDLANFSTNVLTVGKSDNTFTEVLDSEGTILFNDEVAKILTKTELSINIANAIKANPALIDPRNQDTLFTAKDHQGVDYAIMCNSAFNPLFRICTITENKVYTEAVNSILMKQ
- Assay type: binding
- CONDITION SET: yes/no binding
PROPERTY NAME: binding to Tlp4 on glycan/small molecule array

NC(=O)C[C@H](N)C(=O)O [Asparagine]
bound
CC(=O)N[C@H]1[C@H]([C@H](O)[C@H](O)CO)OC(O)(C(=O)O)C[C@@H]1O (stereo partly drawn) [Sialic acid]
interacted
OC[C@H]1OC(O)[C@@H](O)[C@@H](O)[C@@H]1O (stereo partly drawn) [Mannose]
interacted
